- assayProtocol: amyloid nucleation score (Sup35N fusion, yeast selection) (log enrichment); library NNK2; higher = more nucleation; inactive = no reads after selection;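 further: zero at mode of non-aggregating sequences after 7 days selection at 30°C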
Parameter: amyloid nucleation score. Scope: all listed entries.
Just the number, please, no unit attached.

Worked examples, 6 sequences total:
>  <sequenceText>
KSETAVRVNGYGAKIQE

>  <recordedValue>
-0.224

$$$$
>  <sequenceText>
VTIRDLFYGHVRQPDSQVVI

>  <recordedValue>
0.883

$$$$
>  <sequenceText>
FACIGGVLHAGGGVGAIGA

>  <recordedValue>
0.69

$$$$
>  <sequenceText>
MGRGPESQHFVCCHRRAWL

>  <recordedValue>
1.15

$$$$
>  <sequenceText>
YNTVVVPDVMTGRF

>  <recordedValue>
-0.599

$$$$
>  <sequenceText>
VRLNDWMVHLND

>  <recordedValue>
0.752

$$$$

input: Please look up its amyloid nucleation score: YILCYTVNCNAELSHLVCDI
output: 7.15

input: Using the record for VALMYFRFQKFDSSSSMHRF , report its amyloid nucleation score.
output: 2.5
